B1: glmS ribozyme (parent)
chain: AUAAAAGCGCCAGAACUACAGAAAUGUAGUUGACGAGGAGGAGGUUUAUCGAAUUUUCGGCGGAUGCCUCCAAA

variants of: B1; test: self-cleavage kobs at 2500 uM GlcN6P; higher = faster cleavage; RNA array; settings: with glucosamine-6-phosphate
This sample holds only a part of the variants without activity.
Each item that follows carries a reported self-cleavage kobs at 2500 uM GlcN6P.

Item Sequence	self-cleavage kobs at 2500 uM GlcN6P
AUAAAAGCGCCAGAACUACAGAAAUGUAGUUGACGAGGAGGAGGUUUAUCGAAUUUUCGGCGGAGGCCUCAAAA	0.000938 s⁻¹
AUAAAAGCGCCAGAACUACAGAAAUGUAUUUGACGAGGAGGAGGUUUAUCGAAUUAUCGGCGGAUGCUUCCAAA	0.000413 s⁻¹
AUAAAAGCCCCAGAACUACAGAAAUGUAUUUGACGAGGAGGAGGUUUAUCGAAUUUUCGGCGGAUGCCACCAAA	< 1e-05 s⁻¹
AUAAAAGCGCCAGAACUACAGAAAUGUAAUUUACGAGGAGGAGGUUUAUCGAAUUAUCGGCGGAUGCCUCCAAA	0.000464 s⁻¹
AUAAAAGCACCAGAACUACAGAAAUGUAGUUGACGAGGAGGCGGUUUAUCGAAUUUUCGGCGGAUGCCUCCAAA	< 1e-05 s⁻¹
AUAAAAGCGCCAGAGCUACAGAAAUGUAGUUGACGAGGAGGAGGUUAAUCGAAUUUUCGGCGGAUGCCUCCAAA	0.0116 s⁻¹
AUAAAAGCGCCAGAACUACAGAAAUGUAGUUGACGAGGAGCAGGUUCAUCGAAUUUUCGGGGGAUGUCUCCAAA	< 1e-05 s⁻¹
AUAAAAGCGCCAGAACUACAGAAAUGUAGUUGACGAGAAAGAGUUUUAUCGAAUUUUCGCCGGAUGCCUCCAAA	< 1e-05 s⁻¹
AUAAAAGCGCCAGGACUACAGAAAUGUAGUUGUCGAGGAGGAGGUUUAUCGAAUUUUCGGCGGAUGCCUGCAAA	< 1e-05 s⁻¹
AUAAAAGCGCAAGAACUACAGAAAUGUAGUUGACGAGGAGGAGGUUUAUCGUAUUUUCGGCGGACGCCUCCAAA	< 1e-05 s⁻¹
AUAAAAGCGCCAGUACUACAGAAAUGUAGUUGACGAGGAGGAGGUUUAUCGACUUUUCGGCGGAUGCCUCCAAA	0.000834 s⁻¹
AUAAAAGCGCCAGAACUACAGAAAUGUAGUUGACGAGGAGGAGGUUCAUCGAAUUUUCGGCGGAUGCCUACAAA	0.000426 s⁻¹
AUAAAAGCGCCAGAACUACAGAAAUGUAGGUGACGAGGAGGAGGUUCAUCGAAUUUUCGGCGGAUGCCUGCAAA	0.000116 s⁻¹
AUAAAAGCGCCAGAACUACAGAAAUGUAGUUGACGAGGAGGAGGUUUAUCGAAUUUGAGGCGGAUGCCUUGAAA	9.31e-05 s⁻¹
AUAAAAGCGCCAGAACUACAGAAAUGUAGUUGACUAGGAGGAGGUUUAUCGAAUUUUCGGCAGAUGCCUCCAAA	< 1e-05 s⁻¹
AUAAAAGCGCCAGAACUACAGAAAUGUAGUUGACGAGGAGGAGGAUUAGCGAAUUUUCGGCGGAUGCCUCCAAA	0.0012 s⁻¹
AUAAAAGGGCCAGAACUACAGAAAUGUAGUUGACGAGGAGGAGGUUUAUCGAAUUUUCGGCGGAUGCCGCCAAA	< 1e-05 s⁻¹
AUAAAAGCGCCAGAACUACAGAAAUGUAGUAGACGGGGAGGAGGUUUAUCGAAUUUUCGGCGAUUGCCUCUAAA	< 1e-05 s⁻¹
AUAAAAGCGCCAGAAUUACAGAAAUGUAGUUGACGAGGGGGAGGUUUAUCGAAUUUUAGGCGGAUGCCUCCAAA	0.000347 s⁻¹
AUAAAAGCGCCAGGACUACAGAAAUGUAAUUGACGAGGGGGGUGUUUAUCGAAUUUUCGGCCGAUGCCUCCAAA	< 1e-05 s⁻¹
AUAAAAGCGCUAGAACUACAGAAAUGUAGUUGACGAGGAGGAGGUUUAUCGGAUUUUCGGCGGAUGCCUCCAAA	0.000109 s⁻¹
AUAAAAGCGCCGGAACUACAGAAAUGUAGUUGGCGAGGAGGAGGUUUAUCGAAUUUACUGCGGAUGCCUCCAAA	< 1e-05 s⁻¹

Value source: the supplement of paper PMC7125110
